# system_name: Protein kinase C beta type (Homo sapiens)
# assay_info: Inhibition of human Protein kinase C beta 1
pIC50: −log10 of the molar value.

compound	pIC50
O=C(N[C@H]1C[C@@H](CO)C[C@H]1OC(=O)c1cc(O)c(C(=O)c2c(O)cccc2C(=O)O)c(O)c1)c1ccc(O)cc1	7.22
NC[C@H]1C[C@H](NC(=O)c2ccc(O)cc2)[C@H](OC(=O)c2cc(O)c(C(=O)c3c(O)cccc3C(=O)O)c(O)c2)C1	8.40
O=C(N[C@H]1C[C@@H](O)C[C@H]1OC(=O)c1cc(O)c(C(=O)c2c(O)cccc2C(=O)O)c(O)c1)c1ccc(O)cc1.O=C(N[C@H]1C[C@H](O)C[C@H]1OC(=O)c1cc(O)c(C(=O)c2c(O)cccc2C(=O)O)c(O)c1)c1ccc(O)cc1 (single isomer, unassigned)	7.70
N[C@@H]1C[C@H](NC(=O)c2ccc(O)cc2)[C@H](OC(=O)c2cc(O)c(C(=O)c3c(O)cccc3C(=O)O)c(O)c2)C1	8.40
O=C(N[C@H]1C[C@H](CO)C[C@H]1OC(=O)c1cc(O)c(C(=O)c2c(O)cccc2C(=O)O)c(O)c1)c1ccc(O)cc1	8.40
O=C(N[C@H]1C[C@H](O)C[C@H]1OC(=O)c1cc(O)c(C(=O)c2c(O)cccc2C(=O)O)c(O)c1)c1ccc(O)cc1	7.70
NC[C@@H]1C[C@H](NC(=O)c2ccc(O)cc2)[C@H](OC(=O)c2cc(O)c(C(=O)c3c(O)cccc3C(=O)O)c(O)c2)C1	8.30

----------
# system_name: Protein kinase C beta type (Homo sapiens, UniProt P05771)
# Sequence (P05771 whole entry): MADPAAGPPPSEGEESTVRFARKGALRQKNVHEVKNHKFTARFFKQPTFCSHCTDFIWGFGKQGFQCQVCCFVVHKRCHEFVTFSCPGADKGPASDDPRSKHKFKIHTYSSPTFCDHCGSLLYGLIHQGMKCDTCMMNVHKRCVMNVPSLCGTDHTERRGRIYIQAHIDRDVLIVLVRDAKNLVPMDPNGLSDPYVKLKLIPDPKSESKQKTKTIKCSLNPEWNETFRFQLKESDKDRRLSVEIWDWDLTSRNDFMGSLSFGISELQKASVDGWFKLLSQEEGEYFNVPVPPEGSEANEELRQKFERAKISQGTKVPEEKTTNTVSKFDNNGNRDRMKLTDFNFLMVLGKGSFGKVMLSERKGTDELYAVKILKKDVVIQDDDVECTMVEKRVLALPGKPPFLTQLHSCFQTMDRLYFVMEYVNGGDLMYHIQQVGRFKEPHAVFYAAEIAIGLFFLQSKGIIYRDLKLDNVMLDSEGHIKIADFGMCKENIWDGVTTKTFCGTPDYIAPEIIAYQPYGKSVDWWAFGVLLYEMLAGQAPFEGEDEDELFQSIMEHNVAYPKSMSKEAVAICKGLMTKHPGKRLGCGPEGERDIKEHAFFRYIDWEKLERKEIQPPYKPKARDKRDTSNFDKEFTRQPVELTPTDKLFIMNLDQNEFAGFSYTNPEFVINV
# assay_info: Inhibition of human Protein kinase C beta 2
pIC50: −log10 of the molar value.
The label depends only on pIC50: label 1 if it is at least 8, label 0 if it is smaller.

compound	category_label
NC[C@@H]1C[C@H](NC(=O)c2ccc(O)cc2)[C@H](OC(=O)c2cc(O)c(C(=O)c3c(O)cccc3C(=O)O)c(O)c2)C1	label 1
O=C(N[C@H]1C[C@H](CO)C[C@H]1OC(=O)c1cc(O)c(C(=O)c2c(O)cccc2C(=O)O)c(O)c1)c1ccc(O)cc1	label 1
O=C(N[C@H]1C[C@@H](CO)C[C@H]1OC(=O)c1cc(O)c(C(=O)c2c(O)cccc2C(=O)O)c(O)c1)c1ccc(O)cc1	label 0
N[C@@H]1C[C@H](NC(=O)c2ccc(O)cc2)[C@H](OC(=O)c2cc(O)c(C(=O)c3c(O)cccc3C(=O)O)c(O)c2)C1	label 1
NC[C@H]1C[C@H](NC(=O)c2ccc(O)cc2)[C@H](OC(=O)c2cc(O)c(C(=O)c3c(O)cccc3C(=O)O)c(O)c2)C1	label 1
O=C(N[C@H]1C[C@H](O)C[C@H]1OC(=O)c1cc(O)c(C(=O)c2c(O)cccc2C(=O)O)c(O)c1)c1ccc(O)cc1	label 0
O=C(N[C@@H]1CNCCC[C@H]1OC(=O)c1cc(O)c(C(=O)c2c(O)cccc2C(=O)O)c(O)c1)c1ccc(O)cc1 (racemic)	label 0

----------
Readings of IC50 for the listed compounds
# system_name: Protein kinase C delta type (Homo sapiens)
# Sequence (Q05655 whole entry): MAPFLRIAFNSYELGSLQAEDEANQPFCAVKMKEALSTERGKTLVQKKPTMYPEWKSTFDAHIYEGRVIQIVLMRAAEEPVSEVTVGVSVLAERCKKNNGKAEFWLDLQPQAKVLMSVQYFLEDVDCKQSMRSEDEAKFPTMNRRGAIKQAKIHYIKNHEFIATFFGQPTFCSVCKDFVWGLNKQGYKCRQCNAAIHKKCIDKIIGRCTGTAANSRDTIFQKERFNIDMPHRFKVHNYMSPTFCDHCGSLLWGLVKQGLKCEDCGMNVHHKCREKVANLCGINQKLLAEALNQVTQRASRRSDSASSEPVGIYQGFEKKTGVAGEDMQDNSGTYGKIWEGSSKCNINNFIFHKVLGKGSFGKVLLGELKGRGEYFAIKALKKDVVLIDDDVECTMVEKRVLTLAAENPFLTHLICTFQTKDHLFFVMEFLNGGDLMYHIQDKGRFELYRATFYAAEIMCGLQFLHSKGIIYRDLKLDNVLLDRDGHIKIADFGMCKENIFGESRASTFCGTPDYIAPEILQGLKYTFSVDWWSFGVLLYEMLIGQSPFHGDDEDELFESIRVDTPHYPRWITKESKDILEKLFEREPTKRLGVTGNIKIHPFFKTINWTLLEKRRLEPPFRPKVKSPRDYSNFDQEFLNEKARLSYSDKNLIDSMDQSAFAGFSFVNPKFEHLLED
# assay_info: Inhibition of human Protein kinase C delta
endpoint_name: IC50

compound	val
O=C(N[C@H]1C[C@@H](CO)C[C@H]1OC(=O)c1cc(O)c(C(=O)c2c(O)cccc2C(=O)O)c(O)c1)c1ccc(O)cc1	20 nM
NC[C@H]1C[C@H](NC(=O)c2ccc(O)cc2)[C@H](OC(=O)c2cc(O)c(C(=O)c3c(O)cccc3C(=O)O)c(O)c2)C1	6 nM
O=C(N[C@H]1C[C@H](O)C[C@H]1OC(=O)c1cc(O)c(C(=O)c2c(O)cccc2C(=O)O)c(O)c1)c1ccc(O)cc1	6 nM
NC[C@@H]1C[C@H](NC(=O)c2ccc(O)cc2)[C@H](OC(=O)c2cc(O)c(C(=O)c3c(O)cccc3C(=O)O)c(O)c2)C1	20 nM
N[C@@H]1C[C@H](NC(=O)c2ccc(O)cc2)[C@H](OC(=O)c2cc(O)c(C(=O)c3c(O)cccc3C(=O)O)c(O)c2)C1	5 nM
O=C(N[C@H]1C[C@@H](O)C[C@H]1OC(=O)c1cc(O)c(C(=O)c2c(O)cccc2C(=O)O)c(O)c1)c1ccc(O)cc1.O=C(N[C@H]1C[C@H](O)C[C@H]1OC(=O)c1cc(O)c(C(=O)c2c(O)cccc2C(=O)O)c(O)c1)c1ccc(O)cc1 (single isomer, unassigned)	5 nM
O=C(N[C@H]1C[C@H](CO)C[C@H]1OC(=O)c1cc(O)c(C(=O)c2c(O)cccc2C(=O)O)c(O)c1)c1ccc(O)cc1	4 nM
O=C(N[C@@H]1CNCCC[C@H]1OC(=O)c1cc(O)c(C(=O)c2c(O)cccc2C(=O)O)c(O)c1)c1ccc(O)cc1 (racemic) [BALANOL]	30 nM
